# Organism: Rattus norvegicus
# method-summary: Open TG-GATES - Regimen: Daily Repeat
# Format: toxicity, organism-based, Sprague-Dawley
# Parameters: regimen Daily Repeat, gender Male, age 6 weeks
# measurement-setup: in vivo, po, 0 mg/kg, 72 h, tissue Blood, route gavage, dose level Control, time 3 day
observable: MCV (fL)
One number for each entry, in fL.

Worked examples follow.
{"compound": "CC[C@@H](CO)NCCN[C@@H](CC)CO [ETHAMBUTOL]", "recorded-measurement": 62.6}
{"compound": "CC(C)Cc1ccc(C(C)C(=O)O)cc1 (stereo not drawn) [IBUPROFEN]", "recorded-measurement": 64.7}

Continue with the next compound.
Which MCV value belongs to CCN(CC)N=O [N-NITROSODIETHYLAMINE] ? 62.3

* * *

# Organism: Rattus norvegicus
# method-summary: Open TG-GATES - Regimen: Single
# Type: toxicity, organism-based, Sprague-Dawley
# Parameters: regimen Single, gender Male, age 6 weeks
# measurement-setup: in vivo, po, 0 mg/kg, 3 h, tissue Blood, route gavage, dose level Control
observable: Neu
Write the quantity with the unit trailing the number.

{"molecule": "CC(=O)Nc1ccc2c(c1)Cc1ccccc1-2", "Neu": "18.4%"}
{"molecule": "CC[C@@H](CO)NCCN[C@@H](CC)CO", "Neu": "12.2%"}
{"molecule": "CC(C)Cc1ccc(C(C)C(=O)O)cc1 (configuration not stated)", "Neu": "23.6%"}
{"molecule": "CC(CCc1ccccc1)NCC(O)c1ccc(O)c(C(N)=O)c1 (configuration not stated)", "Neu": "14.2%"}

Report Neu for each item below.
1. CCN(CC)N=O
2. O=C(O)COc1nn(Cc2ccccc2)c2ccccc12
3. CC(=O)N1CCN(c2ccc(OCC3COC(Cn4ccnc4)(c4ccc(Cl)cc4Cl)O3)cc2)CC1 (configuration not stated)

1. 18%
2. 12%
3. 19.8%

* * *

Please go through the items and note down their ALT.
# Species: Rattus norvegicus
# method-summary: Open TG-GATES - Regimen: Daily Repeat
# Type: toxicity, organism-based, Sprague-Dawley
# Design: regimen Daily Repeat, gender Male, age 6 weeks
# measurement-setup: in vivo, po, 0 mg/kg, 72 h, tissue Plasma, route gavage, dose level Control, time 3 day
Numbers only, in IU/L.

Worked examples follow.
{"molecule": "CCN(CC)N=O", "observable": "ALT", "unit-spec": "IU/L", "recorded-measurement": 35.8}
{"molecule": "CC(N)=O [ACETAMIDE]", "observable": "ALT", "unit-spec": "IU/L", "recorded-measurement": 39.8}
{"molecule": "CC(CCc1ccccc1)NCC(O)c1ccc(O)c(C(N)=O)c1 (configuration not stated)", "observable": "ALT", "unit-spec": "IU/L", "recorded-measurement": 44.2}
{"molecule": "O=C(O)COc1nn(Cc2ccccc2)c2ccccc12", "observable": "ALT", "unit-spec": "IU/L", "recorded-measurement": 41.4}
{"molecule": "CC[C@@H](CO)NCCN[C@@H](CC)CO", "observable": "ALT", "unit-spec": "IU/L", "recorded-measurement": 45.4}

Report ALT for each item below.
1. CC(=O)Nc1ccc2c(c1)Cc1ccccc1-2
2. CC(C)Cc1ccc(C(C)C(=O)O)cc1 (configuration not stated)

1. 38.2
2. 44.8

* * *

Please go through the items and note down their Plat.
# Organism: Rattus norvegicus
# method-summary: Open TG-GATES - Regimen: Single
# Type: toxicity, organism-based, Sprague-Dawley
# Design: regimen Single, gender Male, age 6 weeks
# measurement-setup: in vivo, po, 0 mg/kg, 24 h, tissue Blood, route gavage, dose level Control
Answers are plain numbers, in x10_4/uL.

Worked examples follow.
{"compound": "CCN(CC)N=O", "Plat [x10_4/uL]": 128.8}
{"compound": "CC(=O)Nc1ccc2c(c1)Cc1ccccc1-2", "Plat [x10_4/uL]": 121.3}
{"compound": "CC(=O)N1CCN(c2ccc(OCC3COC(Cn4ccnc4)(c4ccc(Cl)cc4Cl)O3)cc2)CC1 (configuration not stated)", "Plat [x10_4/uL]": 117.4}
{"compound": "CC(C)Cc1ccc(C(C)C(=O)O)cc1 (configuration not stated)", "Plat [x10_4/uL]": 124.1}
{"compound": "O=C(O)COc1nn(Cc2ccccc2)c2ccccc12", "Plat [x10_4/uL]": 125.1}
{"compound": "CC[C@@H](CO)NCCN[C@@H](CC)CO", "Plat [x10_4/uL]": 115.4}

Which Plat value belongs to CC(CCc1ccccc1)NCC(O)c1ccc(O)c(C(N)=O)c1 (configuration not stated) ? 119
